- EXPERIMENTAL SYSTEM: T1, human IL-18BP (interleukin-18 binding protein, isoform A) (human, UniProt O95998 31-194)
- T1 construct: cell assays used Sino Biological 10357-H08H; PBMC assay 1 relies on endogenous IL-18BP; UniProt number is printed as 095998; also called hIL-18BP
- T1 sequence: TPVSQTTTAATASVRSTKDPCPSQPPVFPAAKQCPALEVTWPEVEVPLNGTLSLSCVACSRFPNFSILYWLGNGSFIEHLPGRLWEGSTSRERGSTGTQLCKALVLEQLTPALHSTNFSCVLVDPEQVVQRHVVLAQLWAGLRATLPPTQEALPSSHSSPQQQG
- PROCEDURE DETAILS: BLI (Octet), mAb on AHC biosensor

BINDER	UNIT ABBREVIATION	Kd
SA318a (antibody, human IgG1, V domains shown, humanized; human IgG1 (suffix a), kappa) VH: QVQLQESGPGLVKPSQTLSLTCTVSGYSITQDYNAHWIRQPPGKGLEWIGYIHYSGQTMYNPSLKSRVTISRDTSKNQFSLKLSSVTAADTAVYYCARNFGSIYVNYFDYWGQGTLVTVSS VL: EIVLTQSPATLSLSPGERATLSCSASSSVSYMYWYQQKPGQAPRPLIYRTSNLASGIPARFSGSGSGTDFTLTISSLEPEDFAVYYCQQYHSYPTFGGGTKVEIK	nM	0.015
SA321a (antibody, human IgG1, V domains shown, humanized; human IgG1 (suffix a), kappa) VH: QVQLQESGPGLVKPSQTLSLTCTVSGYSITQDYNAHWIRQPPGKGLEWIGYIHYSGQTLYNPSLKSRVTISRDTSKNQFSLKLSSVTAADTAVYYCARNFGSIYVNYFDYWGQGTLVTVSS VL: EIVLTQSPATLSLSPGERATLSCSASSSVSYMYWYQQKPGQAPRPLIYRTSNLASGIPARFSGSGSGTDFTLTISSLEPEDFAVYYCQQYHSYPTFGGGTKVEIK	nM	0.136
SA302a (antibody, human IgG1, V domains shown, humanized; human IgG1 (suffix a), kappa) VH: QVQLQESGPGLVKPSQTLSLTCTVSGYSITSDYNAHWIRQPPGKGLEWIGYIHYSGSTNYNPSLKSRVTISRDTSKNQFSLKLSSVTAADTAVYYCARNYGSIYVNYFDYWGQGTLVTVSS VL: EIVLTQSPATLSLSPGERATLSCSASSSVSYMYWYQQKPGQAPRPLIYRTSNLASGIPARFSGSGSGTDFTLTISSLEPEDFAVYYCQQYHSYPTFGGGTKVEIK	nM	0.345
SA315a (antibody, human IgG1, V domains shown, humanized; human IgG1 (suffix a), kappa) VH: QVQLQESGPGLVKPSQTLSLTCTVSGYSITSDYNAHWIRQPPGKGLEWIGYIHYSGQTMYNPSLKSRVTISRDTSKNQFSLKLSSVTAADTAVYYCARNFGSIYVNYFDYWGQGTLVTVSS VL: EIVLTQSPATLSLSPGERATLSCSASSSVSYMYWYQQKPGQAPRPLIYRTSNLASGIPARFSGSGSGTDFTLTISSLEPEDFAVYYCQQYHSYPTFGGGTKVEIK	nM	0.039
SA330a (antibody, human IgG1, V domains shown, humanized; human IgG1 (suffix a), kappa) VH: QVQLQESGPGLVKPSQTLSLTCTVSGYSITSDYNAHWIRQPPGKGLEWIGYIHYSGQTYYNPSLKSRVTISRDTSKNQFSLKLSSVTAADTAVYYCARNFGSIYVNYFDYWGQGTLVTVSS VL: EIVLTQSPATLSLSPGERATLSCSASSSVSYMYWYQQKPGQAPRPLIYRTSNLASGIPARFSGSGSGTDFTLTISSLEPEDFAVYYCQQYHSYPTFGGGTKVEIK	nM	0.076
SA325a (antibody, human IgG1, V domains shown, humanized; human IgG1 (suffix a), kappa) VH: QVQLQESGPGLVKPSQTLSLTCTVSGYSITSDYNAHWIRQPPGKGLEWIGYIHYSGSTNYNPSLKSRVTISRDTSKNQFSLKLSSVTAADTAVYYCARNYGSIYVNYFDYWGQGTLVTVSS VL: EIVLTQSPATLSLSPGERATLSCSASSSVSYMYWYQQKPGQAPRPLIYRTSNLASGIPARFSGSGSGTDFTLTISSLEPEDFAVYYCQEYHSYPTFGGGTKVEIK	nM	0.468
SA322a (antibody, human IgG1, V domains shown, humanized; human IgG1 (suffix a), kappa) VH: QVQLQESGPGLVKPSQTLSLTCTVSGYSITQDYNAHWIRQPPGKGLEWIGYIHYSGQTNYNPSLKSRVTISRDTSKNQFSLKLSSVTAADTAVYYCARNYGSIYVNYFDYWGQGTLVTVSS VL: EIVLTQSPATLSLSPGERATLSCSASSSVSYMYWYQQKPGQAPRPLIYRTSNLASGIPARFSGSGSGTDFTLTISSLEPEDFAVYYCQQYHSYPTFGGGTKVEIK	nM	0.054
SA303a (antibody, human IgG1, V domains shown, humanized; human IgG1 (suffix a), kappa) VH: QVQLQESGPGLVKPSQTLSLTCTVSGYSITSDYNAHWIRQPPGKGLEWIGYIHYSGSTNYNPSLKSRVTISRDTSKNQFSLKLSSVTAADTAVYYCARNFGSIYVNYFDYWGQGTLVTVSS VL: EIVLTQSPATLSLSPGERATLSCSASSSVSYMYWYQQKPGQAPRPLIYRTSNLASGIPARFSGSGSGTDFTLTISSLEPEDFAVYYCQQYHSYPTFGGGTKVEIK	nM	0.182
SA319a (antibody, human IgG1, V domains shown, humanized; human IgG1 (suffix a), kappa) VH: QVQLQESGPGLVKPSQTLSLTCTVSGYSITQDYNAHWIRQPPGKGLEWIGYIHYSGQTNYNPSLKSRVTISRDTSKNQFSLKLSSVTAADTAVYYCARNFGSIYVNYFDYWGQGTLVTVSS VL: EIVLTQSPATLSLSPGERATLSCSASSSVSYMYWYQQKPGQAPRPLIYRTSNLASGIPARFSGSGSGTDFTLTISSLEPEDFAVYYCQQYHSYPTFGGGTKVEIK	nM	0.254
SA309a (antibody, human IgG1, V domains shown, humanized; human IgG1 (suffix a), kappa) VH: QVQLQESGPGLVKPSQTLSLTCTVSGYSITSDYNAHWIRQPPGKGLEWIGYIHYSGQTNYNPSLKSRVTISRDTSKNQFSLKLSSVTAADTAVYYCARNYGSIYVNYFDYWGQGTLVTVSS VL: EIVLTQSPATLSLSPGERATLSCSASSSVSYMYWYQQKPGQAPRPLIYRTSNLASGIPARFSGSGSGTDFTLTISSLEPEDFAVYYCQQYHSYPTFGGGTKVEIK	nM	0.061

All values here come from patent US20250368745A1.
